# STUDY SYSTEM: Concanavalin-A (Canavalia ensiformis)
# TEST DETAILS: ConA small-molecule binders, primary screen, artefact control for SMM control protein annotation, biochemical, small-molecule microarray, Alexa647 label, 635 nm (AID 1127);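 further: z combines 667 nm emission intensity with signal-to-noise across three replicate slides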
# TEST CONTEXT: ConA-A647 binding fluorescence, higher = more signal
Give measured composite z-score for each item. Keep answers brief.
Lab note: write the figure by itself, no unit.

Lab note: O=C(O)[C@H]1C[C@H]2C(=O)NCC(=O)N2[C@H]1c1cccc(OCCO)c1 gave composite z-score of 1.09

Lab note: CC(C)C(=C=CC[C@H](O)c1ccc(OCCO)cc1)C[C@H](O)COCc1ccccc1 gave composite z-score of 0.673

Lab note: COC(=O)c1c(CC[C@@H](CO)NC(=O)Nc2ccc(OC)cc2)oc(C(=O)Cc2ccccc2)c1C(=O)OC gave composite z-score of 0.688

Lab note: CC(C)C[C@@H]1NC(=O)[C@@]23C(=O)N[C@@H](Cc4ccccc4)C2[C@H](C)[C@@]2(C)O[C@H]2C3/C=C/C/C=C\CNC(=O)[C@H](Cc2ccccc2)NC1=O (stereo partly drawn) gave composite z-score of 0.313

Lab note: COc1ccc(CCNC(=O)[C@@]2(Sc3ccc(C)cc3)CC(=O)N(Cc3ccccc3)[C@@H]2c2ccc(CO)cc2I)cc1 gave composite z-score of 0.508

Lab note: CC(C)[C@@H](C(=O)O)n1cc(-c2ccccn2)nn1 gave composite z-score of 0.556

Lab note: CC(C)N1C(=O)c2ccccc2[C@@H](C(=O)NCc2ccccc2)[C@@H]1c1ccc(CO)cc1 gave composite z-score of -1.07

Lab note: C=CCNC(=O)[C@@H]1[C@H]2C(=O)O[C@H](c3ccccc3)[C@H](c3ccccc3)N2[C@H](c2ccc(O)cc2)[C@@]12C(=O)Nc1ccccc12 gave composite z-score of 0.516

---

# Test system: Inhibin beta A chain (activin A)
# TEST DETAILS: INHBA (activin A) binders on microarrays, primary screen, biochemical, small-molecule microarray, 635 nm fluorescence scan (AID 1107);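 further: mouse activin A protein probed at 4.33 µg/mL on printed slides; score merges bound-protein fluorescence near 667 nm with spot signal-to-noise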
# TEST CONTEXT: small-molecule microarray binding, higher = more signal
Give measured composite z-score for each item. Keep answers brief.
Lab note: write the figure by itself, no unit.

Lab note: [N-]=[N+]=NCc1ccccc1C[C@@]1(C(=O)NCc2ccccc2)N=C(c2ccc(OCCCO)cc2)O[C@@H]1c1ccccc1 gave composite z-score of 0.661

Lab note: COc1ccc([Si](C)(C)[C@@H]2[C@@H](CC(=O)N3CCC[C@H]3CO)O[C@]3(C(=O)N(Cc4ccc(I)cc4)c4ccccc43)[C@H]2C)cc1 gave composite z-score of 0.752

Lab note: CC(C)C[C@@H]1NC(=O)[C@@]23C(=O)N[C@@H](Cc4ccccc4)C2[C@H](C)[C@@]2(C)O[C@H]2C3/C=C/CC/C=C/CNC(=O)[C@@H](C)NC1=O (stereo partly drawn) gave composite z-score of 1.29

---

Give measured composite z-score for each item. Keep answers brief.
# STUDY SYSTEM: Carbonic anhydrase 2 (Homo sapiens) (UniProt P00918)
# TEST DETAILS: CAII small-molecule binders, profiling panel, biochemical, small-molecule microarray, Alexa647-labelled CAII (AID 1122)
# TEST CONTEXT: CAII-A647 binding fluorescence, higher = more signal
Lab note: write the figure by itself, no unit.

Lab note: Cc1ccc(N2C(=O)c3ccccc3[C@](C)(C(=O)NCC(F)(F)F)[C@@H]2c2ccc(CO)cc2)nc1 gave composite z-score of 0.869

Lab note: COc1ccc([Si](C)(C)[C@@H]2[C@@H](CCn3cc(CCO)nn3)O[C@]3(C(=O)N(Cc4ccc(N5C(=O)c6cccc7cccc5c67)cc4)c4ccccc43)[C@H]2C)cc1 gave composite z-score of 0.356

Lab note: CCCCCN1CC=CC23O[C@@H]4/C=C\CCC(C)OC(=O)C4[C@H]2C(=O)N(CCCO)[C@@H]3C1=O (stereo not given in full) gave composite z-score of 0.97

Lab note: CN(C)CCCC[C@@H]1NC(=O)[C@@H]2C[C@H](C(=O)NCCCCCNC(=O)CS)[C@H](c3cccc(OCCO)c3)N2C1=O gave composite z-score of 0.82

Lab note: CC(C)(C)OC(=O)CC[C@]1(C(=O)NCc2ccccc2)N=C(c2ccc(OCCCO)cc2)O[C@H]1c1ccccc1N=[N+]=[N-] gave composite z-score of 0.498

---

# Tested on: Noggin (protein binding on small-molecule microarray)
# TEST DETAILS: Noggin binders on small-molecule microarray, primary screen, biochemical, 635/667 nm fluorescence (AID 1095);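 further: score merges 667 nm feature fluorescence with signal to noise over triplicate slides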
# TEST CONTEXT: 635 nm fluorescence, higher = more signal
Give measured composite z-score for each item. Keep answers brief.

Lab note: COc1ccc([Si](C)(C)[C@@H]2[C@@H](CC(=O)N3CCC[C@H]3CO)O[C@]3(C(=O)N(Cc4ccc(N5CCC5=O)cc4)c4ccccc43)[C@H]2C)cc1 gave composite z-score of 1.16

Lab note: CN(C)CCCC[C@@H]1NC(=O)[C@@H]2C[C@H](C(=O)NCCCCCNC(=O)CS)[C@H](c3cccc(OCCO)c3)N2C1=O gave composite z-score of 1.62

Lab note: NC(=O)NCC#Cc1ccc2c(c1)[C@]1(C(=O)N2)[C@H](c2ccc(OCCO)cc2)N2[C@H](c3ccccc3)[C@H](c3ccccc3)OC(=O)[C@H]2[C@@H]1C(=O)Nc1nc2ccccc2s1 gave composite z-score of -0.17

Lab note: [N-]=[N+]=Nc1ccccc1[C@H]1OC(c2ccc(OCCCO)cc2)=N[C@@]1(Cc1ccccc1)C(N)=O gave composite z-score of 0.49

Lab note: C=CCNC(=O)[C@@H]1[C@H]2C(=O)O[C@H](c3ccccc3)[C@H](c3ccccc3)N2[C@H](c2ccc(O)cc2)[C@@]12C(=O)N(C(=O)OCCOC)c1ccc(C#Cc3ccc(OC)cc3)cc12 gave composite z-score of 0.605

Lab note: COCCCNC(=O)[C@@]1(Cc2ccccc2CN=[N+]=[N-])COC(c2ccc(OCCCO)cc2)=N1 gave composite z-score of -0.434

Lab note: COC(=O)c1c(CC[C@@H](CO)NC(=O)Nc2ccc(OC)cc2)oc(C(=O)Cc2ccccc2)c1C(=O)OC gave composite z-score of 0.414

Lab note: C#CCN1C(C(=O)OCC)OC[C@H]1c1ccccc1 (some centres not stated) gave composite z-score of 0.671

Lab note: CC(C)C[C@@H]1NC(=O)[C@@]23C(=O)N[C@@H](Cc4ccccc4)C2[C@H](C)[C@@]2(C)O[C@H]2C3/C=C/CC/C=C/CNC(=O)[C@@H](C)NC1=O (some centres not stated) gave composite z-score of 1.28

Lab note: CCN(CC)c1ccc(N2CC=CC34O[C@@H]5C=CCOC(=O)[C@@H]5[C@H]3C(=O)N(C(CO)C(C)C)[C@@H]4C2=O)cc1 (some centres not stated) gave composite z-score of -0.544

Lab note: CO[C@H]1O[C@H](CO)[C@@H](OC(=O)Nc2ccccc2)[C@H](OC(=O)Nc2ccc3c(c2)OCO3)[C@H]1OC(=O)Nc1ccc2c(c1)OCO2 gave composite z-score of 0.128

Lab note: C=C(C(=O)CC[C@@H](OC(C)=O)c1ccccc1OCCO)C(C)C gave composite z-score of -0.0776

Lab note: [N-]=[N+]=NCc1ccccc1C[C@@]1(C(=O)NCc2ccccc2)N=C(c2ccc(OCCCO)cc2)O[C@@H]1c1ccccc1 gave composite z-score of -0.41

Lab note: C=C(/C(=C/C[C@H](OC(C)=O)c1cccc(OCCO)c1)c1cc(C(=O)OC)ccc1OC)C(C)C gave composite z-score of -0.0168

Lab note: C=CC[C@]1(C(=O)N(C)C)N=C(c2ccc(OCCCO)cc2)O[C@H]1c1ccccc1CN=[N+]=[N-] gave composite z-score of 0.0301

Lab note: O=C1O[C@H](c2ccccc2)[C@H](c2ccccc2)N2[C@H]1[C@@H](C(=O)NC[C@H](O)c1ccccc1)[C@]1(C(=O)Nc3ccc(C#CC4(O)CCCCCC4)cc31)[C@H]2c1ccc(O)cc1 gave composite z-score of 0.927

Lab note: C=CCN1C(=O)[C@@]2(O[C@@H](CCO)[C@H]([Si](C)(C)c3ccc(OC)cc3)[C@H]2C)c2cc(N3C(=O)c4cccc5cccc3c45)ccc21 gave composite z-score of -0.106

Lab note: [N-]=[N+]=NCc1ccccc1C[C@]1(C(=O)NCc2ccccc2)N=C(c2ccc(OCCCO)cc2)O[C@H]1c1ccccc1 gave composite z-score of -0.577

Lab note: CC(C)C(CO)N1C(=O)[C@@H]2C3C(=O)OCCC/C=C\[C@H]3OC23C=CCN(C(C)C)C(=O)[C@@H]13 (some centres not stated) gave composite z-score of -0.868

Lab note: CO[C@H]1O[C@H](CO)[C@@H](OC(=O)Nc2ccccc2)[C@H](OC(=O)Nc2ccccc2-c2ccccc2)[C@@H]1OC(=O)Nc1ccccc1-c1ccccc1 gave composite z-score of 0.926

Lab note: C=C(COC)/C(=C/C[C@H](OC(C)=O)c1ccc(CO)o1)c1cnc2ccccc2c1 gave composite z-score of 1.55

Lab note: O=c1n(-c2ccccc2)c(=O)n2n1CC(COc1ccccc1)=C1[C@@H](CCc3ccccc3)OB(O)C[C@@H]12 gave composite z-score of 0.814
